Measured values drawn from patent US10757944B2 for this set.

- assay.info: Cannabinoid and terpene content of cannabis flower before and after ozone exposure
- Assay type: physicochemical
- conditions: content of cannabis flower after 60 minute exposure to 200 ppm of ozone
I'd appreciate it if you could supply % After Ozone Exposure (60 minutes) values for the items below.
Only the number, expressed in %, is required.

### Prompt Reported % After Ozone Exposure (60 minutes), compound CCCCCc1cc2c(c(O)c1C(=O)O)[C@@H]1C=C(C)CC[C@H]1C(C)(C)O2 [THCA] : ____
### Response 15.7

### Prompt Can you handle CCCCCc1cc(O)c2c(c1)OC(C)(C)[C@@H]1CCC(C)=C[C@@H]21 [THC] next?
### Response 0.680

### Prompt Can you handle C=C(C)[C@@H]1CCC(C)=C[C@H]1c1c(O)cc(CCCCC)c(C(=O)O)c1O [CBDA] next?
### Response 0.035

### Prompt Can you handle CCCCCc1cc2c(c(O)c1C(=O)O)-c1cc(C)ccc1C(C)(C)O2 [CBNA] next?
### Response 0.0458

### Prompt Can you handle CCCCCc1cc2c(c(O)c1C(=O)O)C=CC(C)(CCC=C(C)C)O2 (stereo not shown) [CBCA] next?
### Response 0.102

### Prompt Can you handle CCCc1cc2c(c(O)c1C(=O)O)[C@@H]1C=C(C)CC[C@H]1C(C)(C)O2 [THCVA] next?
### Response 0.076

### Prompt Can you handle CCCCCc1cc(O)c(C/C=C(\C)CCC=C(C)C)c(O)c1C(=O)O [CBGA] next?
### Response 0.552
